target: DNA polymerase α (Homo sapiens); assay: Inhibition of cellular DNA polymerase α, cell-free; conditions: AZT-5′-triphosphate used for AZT, read-out: IC50 Polymerases: DNA Polymerase α
Sequence (P09884 whole entry): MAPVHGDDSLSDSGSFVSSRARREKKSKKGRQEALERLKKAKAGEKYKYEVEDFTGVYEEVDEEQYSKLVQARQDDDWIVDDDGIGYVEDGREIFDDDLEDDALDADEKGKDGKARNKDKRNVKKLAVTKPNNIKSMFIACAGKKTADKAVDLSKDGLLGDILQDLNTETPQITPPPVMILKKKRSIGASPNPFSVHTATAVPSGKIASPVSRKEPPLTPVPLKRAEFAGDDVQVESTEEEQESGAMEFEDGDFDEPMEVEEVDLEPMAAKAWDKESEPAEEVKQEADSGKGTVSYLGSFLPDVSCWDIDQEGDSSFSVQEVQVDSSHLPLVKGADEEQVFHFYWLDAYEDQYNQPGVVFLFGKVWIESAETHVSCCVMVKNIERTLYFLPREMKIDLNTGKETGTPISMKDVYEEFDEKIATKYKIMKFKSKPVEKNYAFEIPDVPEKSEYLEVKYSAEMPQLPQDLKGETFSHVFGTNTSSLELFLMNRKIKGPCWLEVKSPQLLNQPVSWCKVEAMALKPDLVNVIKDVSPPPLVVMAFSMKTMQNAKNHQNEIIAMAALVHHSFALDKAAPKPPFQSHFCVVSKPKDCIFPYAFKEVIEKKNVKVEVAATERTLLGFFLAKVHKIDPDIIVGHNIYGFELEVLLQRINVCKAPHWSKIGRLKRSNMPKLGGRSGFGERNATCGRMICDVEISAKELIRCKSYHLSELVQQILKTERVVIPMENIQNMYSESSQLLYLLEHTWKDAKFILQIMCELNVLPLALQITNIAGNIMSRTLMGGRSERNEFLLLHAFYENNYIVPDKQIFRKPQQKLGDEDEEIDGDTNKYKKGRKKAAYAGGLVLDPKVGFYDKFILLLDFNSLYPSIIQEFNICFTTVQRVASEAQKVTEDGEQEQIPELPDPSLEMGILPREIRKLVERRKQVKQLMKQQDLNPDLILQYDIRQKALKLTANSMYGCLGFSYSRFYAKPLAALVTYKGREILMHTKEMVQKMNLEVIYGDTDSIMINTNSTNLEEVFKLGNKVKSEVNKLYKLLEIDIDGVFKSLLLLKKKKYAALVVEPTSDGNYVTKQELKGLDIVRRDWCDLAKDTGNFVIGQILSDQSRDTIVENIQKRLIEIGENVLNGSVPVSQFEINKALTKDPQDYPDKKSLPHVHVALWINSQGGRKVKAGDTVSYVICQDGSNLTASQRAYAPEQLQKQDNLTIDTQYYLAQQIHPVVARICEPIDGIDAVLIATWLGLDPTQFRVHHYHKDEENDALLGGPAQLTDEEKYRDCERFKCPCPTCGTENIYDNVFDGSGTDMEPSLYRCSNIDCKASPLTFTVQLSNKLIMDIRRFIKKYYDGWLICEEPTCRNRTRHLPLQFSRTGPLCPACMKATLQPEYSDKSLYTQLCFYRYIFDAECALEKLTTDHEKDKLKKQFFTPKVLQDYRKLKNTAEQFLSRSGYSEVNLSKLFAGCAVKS
Sequence (Q14181 whole entry partner): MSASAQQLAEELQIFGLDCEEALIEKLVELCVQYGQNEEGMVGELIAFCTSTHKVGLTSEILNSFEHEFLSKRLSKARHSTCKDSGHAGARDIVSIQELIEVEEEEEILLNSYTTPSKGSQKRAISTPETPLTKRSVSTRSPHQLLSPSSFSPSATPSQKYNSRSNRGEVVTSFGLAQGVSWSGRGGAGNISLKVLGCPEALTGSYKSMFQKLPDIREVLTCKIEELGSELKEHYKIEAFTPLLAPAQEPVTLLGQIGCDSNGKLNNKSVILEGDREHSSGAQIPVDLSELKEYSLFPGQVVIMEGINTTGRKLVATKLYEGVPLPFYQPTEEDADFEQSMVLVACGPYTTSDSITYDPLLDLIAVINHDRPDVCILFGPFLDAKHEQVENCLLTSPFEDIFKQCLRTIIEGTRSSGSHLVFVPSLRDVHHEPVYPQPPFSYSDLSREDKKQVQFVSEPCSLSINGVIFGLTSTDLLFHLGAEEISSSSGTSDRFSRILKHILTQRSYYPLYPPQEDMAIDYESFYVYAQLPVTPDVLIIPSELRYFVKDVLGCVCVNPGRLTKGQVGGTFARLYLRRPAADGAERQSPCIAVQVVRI
Sequence (P49642 whole entry partner): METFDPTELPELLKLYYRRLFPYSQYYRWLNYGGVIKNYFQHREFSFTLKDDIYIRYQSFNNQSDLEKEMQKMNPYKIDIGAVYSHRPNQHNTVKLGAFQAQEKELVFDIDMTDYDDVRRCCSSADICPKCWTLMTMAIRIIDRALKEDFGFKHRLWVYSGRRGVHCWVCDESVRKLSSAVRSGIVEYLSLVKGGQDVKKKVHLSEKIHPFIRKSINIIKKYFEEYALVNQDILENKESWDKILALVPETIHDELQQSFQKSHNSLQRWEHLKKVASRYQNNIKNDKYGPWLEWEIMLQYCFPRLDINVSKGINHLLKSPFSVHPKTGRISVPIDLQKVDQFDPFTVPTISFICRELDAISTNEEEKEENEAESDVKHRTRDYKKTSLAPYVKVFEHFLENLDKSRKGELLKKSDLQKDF
Sequence (P49643 whole entry partner): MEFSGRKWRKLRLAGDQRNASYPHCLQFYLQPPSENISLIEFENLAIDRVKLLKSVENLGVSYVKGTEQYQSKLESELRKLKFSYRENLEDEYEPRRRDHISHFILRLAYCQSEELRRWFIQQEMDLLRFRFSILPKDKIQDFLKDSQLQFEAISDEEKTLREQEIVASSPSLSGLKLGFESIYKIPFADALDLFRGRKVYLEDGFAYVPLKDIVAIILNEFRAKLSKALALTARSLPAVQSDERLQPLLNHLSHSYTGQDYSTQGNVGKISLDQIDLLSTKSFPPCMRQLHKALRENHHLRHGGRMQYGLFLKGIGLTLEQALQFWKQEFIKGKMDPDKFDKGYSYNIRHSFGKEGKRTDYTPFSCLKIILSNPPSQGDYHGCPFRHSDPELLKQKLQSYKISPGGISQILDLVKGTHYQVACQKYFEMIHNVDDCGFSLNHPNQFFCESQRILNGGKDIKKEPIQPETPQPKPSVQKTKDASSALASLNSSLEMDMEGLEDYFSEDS
pIC50: −log10 of the molar value.
property: pIC50

Query: Given the compound Cc1cn([C@H]2C[C@H](N=[N+]=[N-])[C@@H](CO)O2)c(=O)[nH]c1=O [AZT, 3′-Azido-3′-deoxythymidine, reference compound] , write its reported pIC50.
Response: < 4.00

Query: Given the compound O=C(O)P(=O)(O)O [PFA, phosphonoformate, reference compound] , write its reported pIC50.
Response: < 4.00
